The measured values listed here are drawn from PubChem BioAssay (NCATS).

Tested on: CP291
EXPERIMENTAL PROTOCOL: qHTS profiling for inhibitors of Plasmodium falciparum proliferation (AID 504749); also: nearly all actives have a fitted effect of over 60% in size
SETTINGS: P. falciparum in erythrocytes, SYBR Green DNA, 72 h; series mostly up to 28.7 µM
Experimental: NIH National Institute of Allergy and Infectious Diseases [NIAID] NIH Chemical Genomics Center [NCGC] […] Because mature erythrocytes lack DNA, only Plasmodium-derived DNA is detected. NCGC Assay Protocol Summary: The SYBR Green viability assay was adapted from a method described previously (Plouffe et al., 2008). […] The following morning, fluorescence intensity at 485(14) nm excitation and 535(25) nm emission wavelengths was measured on an EnVision (Perkin Elmer) plate reader. […]
Records with an inconclusive call do not appear. The source made the active and inactive calls. Calls follow the shape of the dose curve; as a rule, active = well fitted inhibition curve with a large enough effect; inconclusive = small, poorly fitted or top-dose-only effect; inactive = flat fitted curve, though single readings scatter.
Give one outcome, nothing more. List: true for active, false for inactive

COMPOUND	QUALITATIVE LABEL
C[C@]12CC[C@H](O)C[C@H]1CCC1C2CC[C@]2(C)[C@@H](c3ccc(=O)oc3)C[C@H]3O[C@]132 (some centres not stated)	false

Problem: Hey, what did the test say about CCC(C)C1O[C@]2(C=CC1C)CC1CC(C/C=C(\C)[C@H](OC3CC(OC)C(O[C@H]4CC(OC)[C@@H](O)C(C)O4)C(C)O3)[C@@H](C)/C=C/C=C3\COC4C(O)C(C)=C[C@H](C(=O)O1)[C@@]34O)O2 (some centres not stated) ?
Result: true

Problem: How was `CC[C@@]1(c2ccc(N)cc2)CCC(=O)NC1=O` classified in this test?
Result: false

Problem: Status in this test for CNC(C)[C@@H](O)c1ccc(O)cc1 (some centres not stated) ?
Result: false

Problem: Per the assay record, what outcome was assigned to `C#CCN(C)[C@@H](C)Cc1ccccc1` ?
Result: false

Problem: Assay outcome for `C[C@H](NC(C)(C)C)C(=O)c1cccc(Cl)c1` : what was it?
Result: false

Problem: Called result for C[N+]1([O-])[C@@H]2CC(OC(=O)[C@@H](CO)c3ccccc3)C[C@@H]1[C@H]1O[C@H]12 (some centres not stated)
Result: false

----------
EXPERIMENTAL PROTOCOL: Cell Viability - LYMP2-003 (AID 965);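 also: cells exposed to compounds for 24 h before reading; 0% = DMSO only and full effect = 92 µM tetraoctylammonium bromide; nearly all actives have a fitted effect of over 50% in size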
SETTINGS: LYMP2-003 lymphoblastoid cell viability; series mostly up to 92.2 µM
Results filed as inconclusive are left out. Calls of active or inactive are those of the source. Calls come from the whole dose curve; as a rule, active = well fitted cell-killing curve with a large enough effect; inconclusive = small, poorly fitted or top-dose-only effect, or effect the other way; inactive = flat fitted curve, though single readings scatter.
Would you mind answering with one of these outcomes? 1 for active, 0 for inactive

> print(dat)
                       compound  qualitative.label
1  CC(O)CCl (centres undefined)                  0

Problem: Recorded test call requested for `CC(C)(c1ccccc1)c1ccc(O)cc1`
Result: 0

----------
EXPERIMENTAL PROTOCOL: Cellular Toxicity (caspase-3) Mesangial (AID 660);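 also: combined caspase 3 and 7 activity read by Caspase-Glo luminescence; cells exposed to compound for 16 h before the caspase read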
SETTINGS: mesangial cells, normalized: DMSO 0%, 100 µM tamoxifen 100%; series mostly up to 91.7 µM
Calls of active or inactive are those of the source. Calls follow the shape of the dose curve; as a rule, active = well fitted activation curve with a large enough effect; inconclusive = small, poorly fitted or top-dose-only effect; inactive = flat fitted curve, though single readings scatter.
OBSERVATION TYPE: outcome

Below are worked cases with known answers.
> print(dat)
                  molecule     value
1                C=C(C)C#N  inactive
2           Cc1cccc(C#N)c1  inactive
3  Cc1cccc([N+](=O)[O-])c1  inactive
4       CC(C)(C)OOC(C)(C)C  inactive
5       O=C(Cl)C(Cl)(Cl)Cl  inactive

Could you tell me outcome for each of these molecules? They are listed below.
1. CC(=O)[O-].CC(=O)[O-].O.O.O.[Pb+2]
2. CCOCN(C(=O)CCl)c1c(C)cccc1CC

Result:
1: inactive; 2: inactive
